- ASSAY_TARGET: T1, 4H510-AA
- T1 chain: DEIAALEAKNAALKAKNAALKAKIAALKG
- TEST_NAME: two-hybrid library CCmax;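 further: natural log of median RNA to DNA barcode read ratio; higher means stronger binding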
- ASSAY_SETUP: mean of both orientations
Label Condition met when interaction score is at or above -0.9; otherwise label Condition not met.

>  <BINDER>
DEIAALEAEIAALEAKIAALKAENAALEG [4H43-AA]

>  <LABEL>
Condition met

$$$$
>  <BINDER>
DKNAALKAKNAALKAEIAALEAKIAALKG [4H4038-AA]

>  <LABEL>
Condition not met

$$$$
>  <BINDER>
DKIAALKAENAALEAENAALEAEIAALEG [4H2705-AA]

>  <LABEL>
Condition met

$$$$
>  <BINDER>
DKIAALEAENAALEAEIAALKAENAALEG [4H2187-AA]

>  <LABEL>
Condition met

$$$$
>  <BINDER>
DEIAALEAKIAALKAENAALEAEIAALEG [4H337-AA]

>  <LABEL>
Condition met

$$$$
>  <BINDER>
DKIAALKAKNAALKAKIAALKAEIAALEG [4H3049-AA]

>  <LABEL>
Condition not met

$$$$
>  <BINDER>
DEIAALEAENAALEAEIAALEAKIAALKG [4H134-AA]

>  <LABEL>
Condition met

$$$$
>  <BINDER>
DKNAALEAEIAALEAKNAALKAKIAALKG [4H3134-AA]

>  <LABEL>
Condition not met

$$$$
>  <BINDER>
DKNAALEAKIAALKAENAALEAEIAALEG [4H3409-AA]

>  <LABEL>
Condition met

$$$$
>  <BINDER>
DKIAALKAENAALKAEIAALEAKIAALKG [4H2758-AA]

>  <LABEL>
Condition met

$$$$
>  <BINDER>
DEIAALEAENAALKAKIAALKAEIAALEG [4H233-AA]

>  <LABEL>
Condition not met

$$$$
>  <BINDER>
DKNAALKAKIAALKAEIAALEAEIAALEG [4H3905-AA]

>  <LABEL>
Condition not met

$$$$
>  <BINDER>
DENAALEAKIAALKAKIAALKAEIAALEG [4H1385-AA]

>  <LABEL>
Condition not met

$$$$
>  <BINDER>
DKIAALKAEIAALEAKNAALKAKIAALKG [4H2622-AA]

>  <LABEL>
Condition met

$$$$
>  <BINDER>
DKNAALKAEIAALEAKIAALKAEIAALEG [4H3625-AA]

>  <LABEL>
Condition not met

$$$$
>  <BINDER>
DEIAALEAEIAALKAKNAALKAEIAALEG [4H121-AA]

>  <LABEL>
Condition not met

$$$$
>  <BINDER>
DEIAALEAKNAALKAEIAALEAENAALEG [4H451-AA]

>  <LABEL>
Condition not met

$$$$
>  <BINDER>
DENAALKAENAALEAKIAALKAKIAALKG [4H1710-AA]

>  <LABEL>
Condition met

$$$$
>  <BINDER>
DENAALEAEIAALEAKIAALKAENAALKG [4H1068-AA]

>  <LABEL>
Condition not met

$$$$
>  <BINDER>
DKIAALEAKNAALKAEIAALKAKNAALKG [4H2512-AA]

>  <LABEL>
Condition not met

$$$$
>  <BINDER>
DEIAALEAKIAALKAKNAALKAKNAALKG [4H384-AA]

>  <LABEL>
Condition not met

$$$$
>  <BINDER>
DKIAALKAKIAALEAKNAALKAEIAALEG [4H2873-AA]

>  <LABEL>
Condition met

$$$$
>  <BINDER>
DENAALEAEIAALEAKIAALKAKIAALKG [4H1070-AA]

>  <LABEL>
Condition not met

$$$$
>  <BINDER>
DKNAALKAKIAALKAKIAALEAENAALKG [4H3940-AA]

>  <LABEL>
Condition not met

$$$$
>  <BINDER>
DKIAALKAEIAALKAKNAALKAKNAALEG [4H2687-AA]

>  <LABEL>
Condition not met

$$$$
>  <BINDER>
DKIAALKAENAALEAKIAALKAKNAALKG [4H2736-AA]

>  <LABEL>
Condition not met

$$$$

This collection of values is drawn from paper PMC10397247.
